target: FABP4 (Homo sapiens)
Sequence (P15090 whole entry): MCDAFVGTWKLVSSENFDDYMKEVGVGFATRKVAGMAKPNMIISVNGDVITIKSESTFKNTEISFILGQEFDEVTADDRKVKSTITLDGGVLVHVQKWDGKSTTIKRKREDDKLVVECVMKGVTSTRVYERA
pKd: −log10 of the molar value.
MEASURED ENDPOINT: pKd

{"COMPOUND": "O=c1cc(COc2cccc([125I])c2)[nH]c2nc(-c3ccccc3)nn12 [[^125I]TAP1]", "MEASURED ENDPOINT": "pKd", "ENDPOINT RESULT": 7.16}

====

Assay: Parallel artificial membrane permeation assay (PAMPA)
Assay type: in vitro ADME
Settings: room temperature, read-out: permeability (PAMPA)
Method: The permeability of TAP1 was measured using a pre-coated PAMPA plate system (BD Biosciences) following the manufacturer's procedures. […] Then, the absorbance of each sample was measured at 280 nm. The permeability was calculated as: Pe (cm/s) = (−ln[1−CA/Cequilibrium])/St (1/VD+1/VA) and Cequilibrium = [CDVD+CAVA]/(VD+VA). […] C0 is the concentration of the start sample and A0, Abuffer, AD and AA are absorbances of the starting sample, buffer, donor and acceptor, respectively. […]
MEASURED ENDPOINT: Papp at 5 h (×10⁻⁶ cm/s)

{"SMILES STRING": "O=c1cc(COc2cccc(I)c2)[nH]c2nc(-c3ccccc3)nn12", "MEASURED ENDPOINT": "Papp at 5 h", "ENDPOINT RESULT": 12.6}
